Hello, the source for this data is patent US20250108023A1, in case you need it.

Form field: bitterness value after drug (one value per entry).
Test: Oral spray bitterness masking taste test by volunteers with Coptis chinensis standard bitter solution
Assay type: in vivo, healthy volunteers
Set-up: key: bitterness value 0.5–5.5; 1 = none, 5 = unbearable
Settings: concentration 0.10% in 60% ethanol; initial bitterness 4.0; 16 cases
readoutLabel: bitterness value after drug

[[record]]
compound = "CC1(C)C2CCC1(C)C(O)C2 (stereo not shown)"
readoutlabel = "bitterness value after drug"
readoutvalue = 1.9

[[record]]
compound = "CC(C)[C@@H]1CC[C@@H](C)C[C@H]1OC(=O)CCC(=O)O [Menthyl succinate]"
readoutlabel = "bitterness value after drug"
readoutvalue = 2.4

[[record]]
compound = "CCOC(=O)CNC(=O)[C@@H]1C[C@H](C)CC[C@H]1C(C)C"
readoutlabel = "bitterness value after drug"
readoutvalue = 1.7

[[record]]
compound = "C=CC(C)(O)CCC=C(C)C (stereo not shown)"
readoutlabel = "bitterness value after drug"
readoutvalue = 1.9

[[record]]
compound = "O=CC=Cc1ccccc1"
readoutlabel = "bitterness value after drug"
readoutvalue = 1.1

[[record]]
compound = "O=C(/C=C/C=C/c1ccc2c(c1)OCO2)N1CCCCC1"
readoutlabel = "bitterness value after drug"
readoutvalue = 1.9

[[record]]
compound = "CC1CCC(C(C)C)C(=O)C1 (stereo not shown)"
readoutlabel = "bitterness value after drug"
readoutvalue = 1.2

[[record]]
compound = "CCCCC[C@H](O)CC(=O)CCc1ccc(O)c(OC)c1"
readoutlabel = "bitterness value after drug"
readoutvalue = 1.8

[[record]]
compound = "CNC(=O)C(C)(C(C)C)C(C)C [Cooling agent WS-23, N,2,3-trimethyl-2-isopropylbutyramide]"
readoutlabel = "bitterness value after drug"
readoutvalue = 2

[[record]]
compound = "CC(C)=CCCC(C)=CC=O"
readoutlabel = "bitterness value after drug"
readoutvalue = 1.7

[[record]]
compound = "C=CCc1ccc(OC(C)=O)c(OC)c1 [Eugenol acetate]"
readoutlabel = "bitterness value after drug"
readoutvalue = 1.6

[[record]]
compound = "O=S(=O)([O-])[O-].[Mg+2] [Magnesium sulfate]"
readoutlabel = "bitterness value after drug"
readoutvalue = 2.5

[[record]]
compound = "CCNC(=O)[C@@H]1C[C@H](C)CC[C@H]1C(C)C [Menthamide, N-ethyl-L-menthyl carboxamide]"
readoutlabel = "bitterness value after drug"
readoutvalue = 1.5

